# MEASURED TARGET: DNA topoisomerase 2-alpha (Homo sapiens) (UniProt P11388)
# Sequence (P11388 whole entry): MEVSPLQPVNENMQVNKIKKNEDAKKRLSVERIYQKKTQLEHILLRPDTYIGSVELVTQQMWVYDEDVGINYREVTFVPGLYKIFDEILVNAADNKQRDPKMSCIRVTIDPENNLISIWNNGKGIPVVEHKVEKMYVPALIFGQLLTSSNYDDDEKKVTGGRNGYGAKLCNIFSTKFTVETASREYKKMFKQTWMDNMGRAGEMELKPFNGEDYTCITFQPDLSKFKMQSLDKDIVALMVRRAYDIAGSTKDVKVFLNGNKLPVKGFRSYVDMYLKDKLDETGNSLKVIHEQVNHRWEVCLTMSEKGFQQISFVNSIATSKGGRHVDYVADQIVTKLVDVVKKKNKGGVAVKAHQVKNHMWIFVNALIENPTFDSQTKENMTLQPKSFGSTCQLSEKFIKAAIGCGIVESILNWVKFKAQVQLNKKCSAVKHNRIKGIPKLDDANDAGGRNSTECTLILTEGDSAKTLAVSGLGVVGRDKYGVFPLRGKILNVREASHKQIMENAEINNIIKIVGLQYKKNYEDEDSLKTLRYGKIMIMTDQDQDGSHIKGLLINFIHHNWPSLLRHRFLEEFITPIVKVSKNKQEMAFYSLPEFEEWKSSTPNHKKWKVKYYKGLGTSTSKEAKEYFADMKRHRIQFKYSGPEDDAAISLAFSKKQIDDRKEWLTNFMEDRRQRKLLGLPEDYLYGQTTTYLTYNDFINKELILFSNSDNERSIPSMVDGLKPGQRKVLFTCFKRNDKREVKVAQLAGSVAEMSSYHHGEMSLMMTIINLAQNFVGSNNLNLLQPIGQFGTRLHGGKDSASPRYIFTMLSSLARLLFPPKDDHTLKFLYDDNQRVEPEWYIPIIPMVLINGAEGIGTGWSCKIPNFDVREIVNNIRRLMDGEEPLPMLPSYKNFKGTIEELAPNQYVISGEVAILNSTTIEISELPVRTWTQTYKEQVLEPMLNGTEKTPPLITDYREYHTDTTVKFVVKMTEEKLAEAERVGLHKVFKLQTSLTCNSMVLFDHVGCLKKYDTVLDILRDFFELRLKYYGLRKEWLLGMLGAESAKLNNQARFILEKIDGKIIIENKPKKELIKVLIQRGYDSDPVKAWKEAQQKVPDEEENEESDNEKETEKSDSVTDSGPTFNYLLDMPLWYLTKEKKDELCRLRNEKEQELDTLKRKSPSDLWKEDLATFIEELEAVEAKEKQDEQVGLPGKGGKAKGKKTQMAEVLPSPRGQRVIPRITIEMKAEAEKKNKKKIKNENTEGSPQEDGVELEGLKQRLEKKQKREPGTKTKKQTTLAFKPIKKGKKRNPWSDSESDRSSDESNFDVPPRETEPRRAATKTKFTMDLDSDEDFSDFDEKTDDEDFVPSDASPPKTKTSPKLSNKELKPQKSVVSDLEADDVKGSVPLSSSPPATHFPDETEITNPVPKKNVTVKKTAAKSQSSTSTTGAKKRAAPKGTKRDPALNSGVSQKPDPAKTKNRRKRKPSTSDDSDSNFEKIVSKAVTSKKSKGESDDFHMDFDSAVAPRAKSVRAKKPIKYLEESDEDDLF
# ASSAY REMARKS: Inhibition of DNA topoisomerase 2
Calls of active or inactive are those of the source. The rule behind the calls is not given here.
Choose one outcome from this list and give only that: T = active, F = inactive

Previously resolved entries follow.
MOLECULE	CLASSIFICATION
Cn1cc2c3c1C(=O)C(N/C=C/c1ccc(O)cc1)=CC3=[N+](C)CC2	F
Cn1cc2c3c1C(=O)C(NCCc1ccc(O)cc1)=CC3=NCC2	F
Cn1cc2c3c1C(=O)C(N)=CC3=[N+](C)CC2	F
C[N+]1=C2C=C(N)C(=O)c3[nH]cc(c32)CC1	T
O=C1C(NC2Cc3cc(Br)c(O)cc3S2)=CC2=NCCc3c[nH]c1c32 (stereo unspecified)	T

Here is another molecule to look at.
What is the recorded call for this molecule in the test? "Cn1cc2c3c1C(=O)C(N)=CC3=NCC2" T
